# tested-target: ScSDH (Saccharomyces cerevisiae, UniProt P21801+P33421+P37298+Q00711)
# Sequence (Q00711 29-640): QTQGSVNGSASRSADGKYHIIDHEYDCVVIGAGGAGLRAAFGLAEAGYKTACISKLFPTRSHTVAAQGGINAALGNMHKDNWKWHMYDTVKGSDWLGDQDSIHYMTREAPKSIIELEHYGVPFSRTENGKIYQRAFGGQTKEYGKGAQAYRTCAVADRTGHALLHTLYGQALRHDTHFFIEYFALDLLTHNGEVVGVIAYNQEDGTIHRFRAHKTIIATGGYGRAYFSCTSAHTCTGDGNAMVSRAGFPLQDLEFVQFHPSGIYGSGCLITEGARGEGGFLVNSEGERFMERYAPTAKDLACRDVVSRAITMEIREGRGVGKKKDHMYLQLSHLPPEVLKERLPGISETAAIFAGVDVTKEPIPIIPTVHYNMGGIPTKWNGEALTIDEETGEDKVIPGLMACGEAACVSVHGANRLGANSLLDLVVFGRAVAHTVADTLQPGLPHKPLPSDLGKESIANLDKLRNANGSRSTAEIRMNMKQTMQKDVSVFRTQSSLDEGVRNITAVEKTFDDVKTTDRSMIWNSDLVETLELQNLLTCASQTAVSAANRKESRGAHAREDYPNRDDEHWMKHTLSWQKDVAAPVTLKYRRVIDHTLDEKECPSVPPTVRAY
# Sequence (P21801 21-266): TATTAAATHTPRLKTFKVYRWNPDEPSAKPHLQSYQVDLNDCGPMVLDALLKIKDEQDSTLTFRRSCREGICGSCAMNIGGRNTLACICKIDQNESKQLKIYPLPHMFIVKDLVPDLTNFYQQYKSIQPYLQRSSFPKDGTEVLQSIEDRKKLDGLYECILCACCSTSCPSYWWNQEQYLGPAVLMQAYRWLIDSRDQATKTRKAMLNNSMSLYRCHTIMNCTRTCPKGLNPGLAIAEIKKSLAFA
# Sequence (P33421 51-198): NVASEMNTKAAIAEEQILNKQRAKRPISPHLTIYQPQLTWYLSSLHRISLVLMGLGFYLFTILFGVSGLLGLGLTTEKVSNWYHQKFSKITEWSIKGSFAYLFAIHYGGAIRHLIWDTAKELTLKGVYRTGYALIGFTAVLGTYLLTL
# Sequence (P37298 32-181): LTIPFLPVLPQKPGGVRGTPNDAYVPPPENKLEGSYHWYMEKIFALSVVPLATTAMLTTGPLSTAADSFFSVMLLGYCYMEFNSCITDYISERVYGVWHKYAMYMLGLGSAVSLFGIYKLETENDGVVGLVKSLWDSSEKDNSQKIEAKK
# assay-explanation: SDH activity assay
# condition-context: against ScSDH
pIC50: −log10 of the molar value.

{"columns": ["structure-notation", "tested-target", "pIC50"],
 "data": [
  ["C=C(CN(C(=O)c1c(C(F)F)nn(C)c1F)C1CC1)c1ccc(Cl)cc1Cl", "ScSDH (Saccharomyces cerevisiae, UniProt P21801+P33421+P37298+Q00711)", 7.52]
]}

###

# tested-target: ScSDH (Saccharomyces cerevisiae, UniProt P21801+P33421+P37298+Q00711)
# assay-explanation: SDH activity assay
# condition-context: read-out: Ki, Yeast; inhibition constant against ScSDH
pKi: −log10 of the molar value.
measured-metric: pKi

{"columns": ["structure-notation", "tested-target", "test-value"],
 "data": [
  ["C=C(CN(C(=O)c1c(C(F)F)nn(C)c1F)C1CC1)c1ccc(Cl)cc1Cl", "ScSDH (Saccharomyces cerevisiae, UniProt P21801+P33421+P37298+Q00711)", 7.72]
]}
